assayed_system: PI3Kδ (Homo sapiens)
Construct: Full length p110 subunits of PI3k α, β and δ, N-terminally labeled with polyHis tag; polyHis (N)
Sequence (O00329 whole entry): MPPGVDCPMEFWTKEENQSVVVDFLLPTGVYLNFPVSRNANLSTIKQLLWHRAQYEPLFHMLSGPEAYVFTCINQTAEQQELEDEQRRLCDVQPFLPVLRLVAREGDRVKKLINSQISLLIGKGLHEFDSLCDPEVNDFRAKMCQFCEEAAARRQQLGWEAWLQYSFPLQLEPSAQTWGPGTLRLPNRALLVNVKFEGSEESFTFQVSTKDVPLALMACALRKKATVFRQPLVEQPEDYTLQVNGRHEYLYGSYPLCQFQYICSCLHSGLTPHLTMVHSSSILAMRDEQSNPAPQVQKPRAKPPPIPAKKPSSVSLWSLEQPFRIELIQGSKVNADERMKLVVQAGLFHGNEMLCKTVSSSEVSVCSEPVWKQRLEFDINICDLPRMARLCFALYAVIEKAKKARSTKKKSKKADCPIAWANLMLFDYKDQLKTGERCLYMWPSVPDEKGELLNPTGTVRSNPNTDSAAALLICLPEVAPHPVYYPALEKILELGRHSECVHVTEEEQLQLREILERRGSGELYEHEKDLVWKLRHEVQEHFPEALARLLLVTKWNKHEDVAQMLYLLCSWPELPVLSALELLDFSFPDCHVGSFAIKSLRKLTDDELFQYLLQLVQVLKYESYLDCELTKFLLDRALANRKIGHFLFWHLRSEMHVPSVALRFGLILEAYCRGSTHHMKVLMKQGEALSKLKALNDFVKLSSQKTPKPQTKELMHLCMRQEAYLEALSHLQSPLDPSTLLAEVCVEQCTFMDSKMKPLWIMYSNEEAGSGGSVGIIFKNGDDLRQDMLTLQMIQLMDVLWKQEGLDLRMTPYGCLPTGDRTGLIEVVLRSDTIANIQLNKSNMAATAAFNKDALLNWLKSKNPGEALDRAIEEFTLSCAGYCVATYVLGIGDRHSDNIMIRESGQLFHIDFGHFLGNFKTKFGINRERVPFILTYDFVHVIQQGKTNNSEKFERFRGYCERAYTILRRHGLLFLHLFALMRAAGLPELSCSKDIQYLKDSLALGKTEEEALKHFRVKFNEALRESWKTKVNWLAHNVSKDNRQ
Sequence (P27986 whole entry partner): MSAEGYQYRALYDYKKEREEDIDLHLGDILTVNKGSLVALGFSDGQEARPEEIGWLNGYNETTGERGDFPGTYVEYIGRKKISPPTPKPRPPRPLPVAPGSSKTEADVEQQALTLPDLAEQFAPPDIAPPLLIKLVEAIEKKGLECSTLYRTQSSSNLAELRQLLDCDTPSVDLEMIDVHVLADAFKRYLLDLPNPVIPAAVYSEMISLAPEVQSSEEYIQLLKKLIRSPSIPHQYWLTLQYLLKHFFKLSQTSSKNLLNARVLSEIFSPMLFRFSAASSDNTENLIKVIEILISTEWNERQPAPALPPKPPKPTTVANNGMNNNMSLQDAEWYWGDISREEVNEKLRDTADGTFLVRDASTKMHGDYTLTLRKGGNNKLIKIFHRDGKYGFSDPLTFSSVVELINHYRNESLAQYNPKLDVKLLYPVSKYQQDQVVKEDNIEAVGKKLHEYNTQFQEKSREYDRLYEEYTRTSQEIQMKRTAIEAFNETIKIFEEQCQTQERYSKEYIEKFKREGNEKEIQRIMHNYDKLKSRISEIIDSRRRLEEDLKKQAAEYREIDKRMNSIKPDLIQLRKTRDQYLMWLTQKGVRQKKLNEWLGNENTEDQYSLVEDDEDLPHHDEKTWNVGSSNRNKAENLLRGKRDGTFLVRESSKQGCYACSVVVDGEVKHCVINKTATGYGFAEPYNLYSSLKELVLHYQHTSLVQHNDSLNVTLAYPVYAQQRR
method_description: PI3Kδ Alphascreen assay
pKi: −log10 of the molar value.

smiles_entry | pKi
Cc1c(-c2ccccn2)nc2cc(F)cc(F)c2c1Nc1cc(N2CCOCC2)cnc1-c1ccc(O)cc1 | 9.55
Cc1ccnc(-c2nc3cc(F)cc(F)c3c(Nc3cncc(N4CCOCC4)c3)c2C)c1 | 7.72
Cc1ccc(-c2nc3cc(F)cc(F)c3c(Nc3cncc(N4CCOCC4)c3)c2C)cn1 | 7.72
Cc1c(-c2cc([C@@H](C)O)ccc2S(C)(=O)=O)nc2cc(F)cc(F)c2c1Nc1cncc(N2CCOCC2)c1 | 8.80
Cc1c(-c2cccc3c2ccn3C)nc2cc(F)cc(F)c2c1Nc1cc(N2CCOCC2)cnc1N1CCOCC1 | 7.79
Cc1c(-c2ccccn2)nc2c(Cl)c(F)ccc2c1Nc1cc(N2CCOCC2)cnc1N1CCOCC1 | 7.65
COc1ncccc1-c1ncc(N2CCOCC2)cc1Nc1c(C)c(-c2ccccn2)nc2cc(F)cc(F)c12 | 6.92
Cc1c(N2CCN(C(=O)N(C)C)CC2)nc2cc(F)cc(F)c2c1Nc1cncc(N2CCOCC2)c1 | 7.14
Cc1c(N2CCN(S(=O)(=O)c3ccccc3)CC2)nc2cc(F)cc(F)c2c1Nc1cncc(N2CCOCC2)c1 | 7.48

Attribution: patent US8940724B2
